# plant injury at 125 g/ha values compiled below
Tested on: spring wheat
Assay: Test D preemergence
Type: in vivo, Triticum aestivum
Details: Triticum aestivum, pre-emergence, 125 g ai/ha, scale 0-100, read-out: Plant response rating, Wheat, Spring
The response must be a number in % with no trailing unit.

Look over these answered cases.
>  <Structure>
FC(F)(F)c1cnn(-c2ccccc2Oc2ncc(Br)cn2)c1

>  <Study Target>
spring wheat

>  <plant injury at 125 g/ha (%)>
5

$$$$
>  <Structure>
N#Cc1cccc(Oc2ncc(Br)cn2)c1-n1cc(C(F)(F)F)cn1

>  <Study Target>
spring wheat

>  <plant injury at 125 g/ha (%)>
40

$$$$
>  <Structure>
FC(F)(F)c1cn(-c2ccccc2Oc2ncc(Cl)cn2)nn1

>  <Study Target>
spring wheat

>  <plant injury at 125 g/ha (%)>
60

$$$$

Now consider the entry below.
Exam item: Entry `N#Cc1cccc(Oc2ncc(Cl)cn2)c1-n1cc(C(F)(F)F)cn1` has what plant injury at 125 g/ha?
Marked response: 75

---

Test system: field bindweed
Assay: Test E preemergence
Type: in vivo, Convolvulus arvensis
Conditions: 31 g ai/ha, scale 0 to 100 (0 no effect, 100 complete control)
# Field Bindweed plant response rating values compiled below
Just the number, please, no unit after it.

>  <Structure>
FCc1cccc(Oc2ncc(Cl)cn2)c1-n1cc(Cl)cn1

>  <Study Target>
field bindweed

>  <Field Bindweed plant response rating>
0

$$$$

Exam item: Fill in the recorded Field Bindweed plant response rating for this molecule, with field bindweed as test system: `N#Cc1cccc(Oc2ncc(Cl)cn2)c1-n1cc(C(F)(F)F)cn1`
Marked response: 20

Exam item: Follow-up item: `N#Cc1cnn(-c2c(C#N)cccc2Oc2ncc(F)cn2)c1`
Marked response: 15

Exam item: Follow-up item: `FC(F)c1cccc(Oc2ncc(Cl)cn2)c1-n1cc(Br)cn1`
Marked response: 0

---

# pest or weed control at 31 g/ha values compiled below
System: ragweed
Test: Test C preemergence
Format: in vivo, Ambrosia elatior
Details: Ambrosia artemisiifolia, pre-emergence; Preemergence, 31 g ai/ha; scale 0 to 100, 0 no effect, 100 complete control; read-out: Plant response rating, Ragweed
The response must be a number in % with no trailing unit.

Look over these answered cases.
>  <Compound>
FC(F)(F)c1cnn(-c2ccccc2Oc2ncc(Br)cn2)c1 [Compound 18]

>  <pest or weed control at 31 g/ha (%)>
0

$$$$
>  <Compound>
FC(F)(F)Sc1cnn(-c2ccccc2Oc2ncc(Cl)cn2)c1 [Compound 132]

>  <pest or weed control at 31 g/ha (%)>
10

$$$$

Exam item: Fill in the recorded pest or weed control at 31 g/ha for this compound, with ragweed as test system: N#Cc1cccc(Oc2ncc(Br)cn2)c1-n1cc(C(F)(F)F)cn1 [Compound 59]
Marked response: 90

Exam item: Follow-up item: Clc1cnc(Oc2ccccc2-n2cc(Br)cn2)nc1 [Compound 7]
Marked response: 0

---

System: galium
Experiment: Test C preemergence
Assay type: in vivo, Galium aparine
Conditions: Galium, pre-emergence; 125 g ai/ha, preemergence; scale 0 (no effect) to 100 (complete control); read-out: Galium plant response rating
Endpoint: pest or weed control at 125 g/ha (%)
The response must be a number in % with no trailing unit.

>  <Structure>
FC(F)(F)c1cnn(-c2ccccc2Oc2ncc(Br)cn2)c1

>  <pest or weed control at 125 g/ha [%]>
100

$$$$
>  <Structure>
N#Cc1cccc(Oc2ncc(Cl)cn2)c1-n1cnc(C(F)(F)F)c1

>  <pest or weed control at 125 g/ha [%]>
98

$$$$
>  <Structure>
FC(F)(F)COc1cnn(-c2ccccc2Oc2ncc(Cl)cn2)c1

>  <pest or weed control at 125 g/ha [%]>
100

$$$$

Now consider the entry below.
Exam item: Fill in the recorded pest or weed control at 125 g/ha for this compound, with galium as test system: `N#Cc1cccc(Oc2ncc(Br)cn2)c1-n1cc(C(F)(F)F)cn1`
Marked response: 100
